B1: VH:VL chains; a variant is named by its letters at X, in order (parent)
chain 1: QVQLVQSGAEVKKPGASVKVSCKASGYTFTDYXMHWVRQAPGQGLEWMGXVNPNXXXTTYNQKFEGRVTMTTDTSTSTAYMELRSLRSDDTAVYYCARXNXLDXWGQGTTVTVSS
chain 2: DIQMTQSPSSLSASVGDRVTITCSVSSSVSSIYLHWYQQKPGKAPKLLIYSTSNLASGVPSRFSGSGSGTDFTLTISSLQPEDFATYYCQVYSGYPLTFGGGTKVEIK

variants of: B1; assay: yeast display scFab, FACS + sequencing
parameter_measured: non-specific binding call

YKAEDVGD    binds
DRGRDFGV    no binding
YRGRSSSV    binds
DTGANDWV    no binding
YRTKGAAD    binds
YAARAALD    binds

Please list non-specific binding call recorded for the variant `VEEEGSGA`
no binding

Please list non-specific binding call recorded for the variant `VEEEGDWV`
no binding

Please list non-specific binding call recorded for the variant `VRARGVVA`
binds

Please list non-specific binding call recorded for the variant `DEGGTDWY`
no binding

Please list non-specific binding call recorded for the variant `YARETAGV`
binds

Data credit: the emibetuzumab library of Makowski et al. (2022)
